assay: AUC in Sprague-Dawley rat at 10 mg/kg, iv; assay type: ADME, organism-based; parameters: dose 10 mg/kg, route iv; details: in vivo
result.type: AUC (µg·h/mL)

smiles.repr	value.reported
CO[C@H]1/C=C/O[C@@]2(C)Oc3c(C)c(O)c4c(c3C2=O)C2=NC3(CCN(CCn5c([N+](=O)[O-])cnc5C)CC3)NC2=C(NC(=O)/C(C)=C\C=C\[C@H](C)[C@H](O)[C@@H](C)[C@@H](O)[C@@H](C)[C@H](OC(C)=O)[C@@H]1C)C4=O	6.49

###

test: Drug distribution in Sprague-Dawley rat ascites fluid measured at 0.5 hrs; type: ADME, tissue-based, Ascitic fluid; conditions: read-out: Ct

smiles.repr	concentration at 0.5 h
CO[C@H]1/C=C/O[C@@]2(C)Oc3c(C)c(O)c4c(c3C2=O)C2=NC3(CCN(CCn5c([N+](=O)[O-])cnc5C)CC3)NC2=C(NC(=O)/C(C)=C\C=C\[C@H](C)[C@H](O)[C@@H](C)[C@@H](O)[C@@H](C)[C@H](OC(C)=O)[C@@H]1C)C4=O	2620 ng/g
